tgt: FADS1 (Mus musculus, UniProt Q920L1)
Construct: Liver from ^13C5-DGLA dosed DIO mice was collected for pharmacodynamic (PD) analysis; from tissue; host or cells: living DIO C57Bl/6 mice; 13C5-DGLA to 13C5-AA conversion read in liver (A4) or blood plasma (A5)
Sequence (Q920L1 whole entry): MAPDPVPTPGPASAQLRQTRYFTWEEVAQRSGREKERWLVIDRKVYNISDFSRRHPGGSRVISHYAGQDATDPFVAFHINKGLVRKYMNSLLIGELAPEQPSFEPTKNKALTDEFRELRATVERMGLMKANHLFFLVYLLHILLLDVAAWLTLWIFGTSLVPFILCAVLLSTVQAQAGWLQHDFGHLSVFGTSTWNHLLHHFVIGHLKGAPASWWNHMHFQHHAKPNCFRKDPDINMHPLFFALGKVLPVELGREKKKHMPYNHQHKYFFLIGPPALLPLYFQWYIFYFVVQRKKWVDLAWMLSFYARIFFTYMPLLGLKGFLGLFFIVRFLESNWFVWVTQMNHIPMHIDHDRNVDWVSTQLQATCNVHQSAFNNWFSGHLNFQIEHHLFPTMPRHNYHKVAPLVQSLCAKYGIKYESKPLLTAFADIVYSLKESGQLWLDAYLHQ
protocol.details: In vivo FADS1 activity measurement using the liver (13C5-DGLA to 13C5-AA conversion)
test.context: DIO mice, single oral dose 30 mg/kg, 24 hours after dosing
Method: Mice were then dosed by intraperitoneal injection with a solution comprising of a mixture of 0.1 ml solution of ^13C5-DGLA (2 mM in 18.42 mM Na2CO3 buffer). Necropsy were performed at 30 minutes post ^13C5-DGLA dosing. […] The extracts were then analyzed by LC/MS/MS for the following analytes: ^13C5-DGLA, ^13C5-AA, with ALA-d14 as the internal standard. […] The analyte peak areas were quantified using the Analyst software (SCIEX, Framingham, MT). […]
metric: Liver Avg % Conversion (%)

N#Cc1ccn2c(=O)c(-c3cnn(CC(F)(F)C(F)(F)F)c3)c(C(F)(F)F)nc2c1 [Compound C]: 1.5
COc1ccn2c(=O)c(-c3ccc(O[C@H](C)C#N)cc3)c(C(F)(F)F)nc2n1 [Compound E]: 78.7
COc1ccn2c(=O)c(-c3cnn(CC(F)(F)C(F)(F)F)c3)c(C(F)(F)F)nc2n1 [Compound B]: 1.5
